Data provenance: patent US20250222125A1

# SYSTEM NAME: human FGFR2b (Homo sapiens, UniProt P21802)
# Sequence (P21802 22-822 isoform P21802-3 limits assumed): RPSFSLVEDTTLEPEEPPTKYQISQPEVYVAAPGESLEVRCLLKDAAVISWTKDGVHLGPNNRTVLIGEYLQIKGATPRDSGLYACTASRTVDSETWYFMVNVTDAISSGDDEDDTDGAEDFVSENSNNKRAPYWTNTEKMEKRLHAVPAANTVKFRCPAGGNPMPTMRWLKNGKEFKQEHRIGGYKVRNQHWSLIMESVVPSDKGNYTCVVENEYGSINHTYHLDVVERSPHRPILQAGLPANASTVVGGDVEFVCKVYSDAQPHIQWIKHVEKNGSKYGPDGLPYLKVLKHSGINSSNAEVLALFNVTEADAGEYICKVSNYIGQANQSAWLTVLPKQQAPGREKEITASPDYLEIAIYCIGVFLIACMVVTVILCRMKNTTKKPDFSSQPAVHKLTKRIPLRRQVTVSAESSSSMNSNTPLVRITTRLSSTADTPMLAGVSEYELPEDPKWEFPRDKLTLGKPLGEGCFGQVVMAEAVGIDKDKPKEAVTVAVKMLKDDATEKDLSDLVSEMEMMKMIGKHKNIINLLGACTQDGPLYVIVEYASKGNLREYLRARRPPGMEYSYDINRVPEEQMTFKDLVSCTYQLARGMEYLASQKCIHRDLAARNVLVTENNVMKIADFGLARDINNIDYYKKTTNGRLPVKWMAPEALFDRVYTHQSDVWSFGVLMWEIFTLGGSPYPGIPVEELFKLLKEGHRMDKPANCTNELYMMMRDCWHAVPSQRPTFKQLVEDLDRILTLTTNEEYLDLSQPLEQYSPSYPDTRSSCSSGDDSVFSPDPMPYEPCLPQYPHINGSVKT
# ASSAY PROTOCOL: ELISA binding to recombinant human FGFR2b (Example 11)
VALUE TYPE: Emax (A450)
Record the result as number plus unit.

Give the measured Emax (A450) of BGAm1823: parental murine anti-FGFR2b antibody; VH SEQ ID NO: 28, VL SEQ ID NO: 30 (antibody, V domains shown, Synthetic: VH AA; Synthetic: VL AA) VH: EVQLQQSGAELVKPGASVKISCKASGYAFSIYWMNWVKQRPGKGLEWIGQIYPENGDTNYNGKFKGKATLTADKSSSTAYMHLSSLTSEDSAVYFCARGGFDYWGQGTTLTVSS VL: NIVMTQSPASLSASVGETVTITCRASENIYSNLAWYQQKQGKSPQLLVYTATNLADGVPSRFSGSGSGTQFSLKINSLQPEDFGSYYCQHFYGILYTFGSGTRLEIK .
2.952 A450
